- measured target: UniProt:Q9UIF7
- Sequence (whole entry): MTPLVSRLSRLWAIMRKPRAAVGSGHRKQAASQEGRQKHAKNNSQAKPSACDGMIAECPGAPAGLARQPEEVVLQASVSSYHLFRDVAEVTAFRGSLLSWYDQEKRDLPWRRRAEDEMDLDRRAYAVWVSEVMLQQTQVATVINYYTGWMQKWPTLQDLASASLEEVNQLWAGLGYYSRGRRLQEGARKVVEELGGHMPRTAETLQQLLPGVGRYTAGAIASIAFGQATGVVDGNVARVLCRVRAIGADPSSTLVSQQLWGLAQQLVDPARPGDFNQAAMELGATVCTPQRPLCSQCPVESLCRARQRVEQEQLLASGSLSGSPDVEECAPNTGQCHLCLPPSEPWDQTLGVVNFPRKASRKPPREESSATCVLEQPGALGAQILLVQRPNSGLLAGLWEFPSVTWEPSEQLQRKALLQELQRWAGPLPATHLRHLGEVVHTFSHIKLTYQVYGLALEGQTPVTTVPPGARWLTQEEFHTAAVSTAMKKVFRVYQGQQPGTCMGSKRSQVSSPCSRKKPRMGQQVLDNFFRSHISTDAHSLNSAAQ
- condition parameters: Compound Concentration 10.0 uM, Hit No
- Description: Inhibition of MUTYH by quantifying inhibition of MUTYH-mediated cleavage and dissociation of quenched duplex DNA oligonucleotides, measured as fluorescence at 594 nm. To generate a functional strand incision and increase turn-over this assay is coupled to APE1.
recorded endpoint: inhibition

compound	measured target	meas value
C[N+]1(C)[C@@H]2C[C@@H](OC(=O)C(O)(c3cccs3)c3cccs3)C[C@H]1[C@@H]1O[C@@H]12	UniProt:Q9UIF7	9.11%
COc1ccc(NC(=O)c2ccc(-c3ccc(-c4noc(C)n4)cc3C)cc2)cc1OCCN(C)C	UniProt:Q9UIF7	104%
Cc1ccnc(Nc2nc(-c3ccccn3)cs2)c1	UniProt:Q9UIF7	13.9%
CCC(=O)N[C@@H]1CC[C@H](C(=O)N(C)c2ccc(-c3nc4ccccc4o3)cc2)C1	UniProt:Q9UIF7	-7.15%

List inhibition for every entry below, keeping the order given.
1. CCn1cc(-c2ccnc3[nH]c(-c4cccc(CN(C)C)c4)cc23)c(-c2ccc(NC(=O)N(C)C)cc2)n1
2. CC(C)(C)c1ccc2c(c1)CC[C@H]2NC(=O)Nc1cccc2[nH]ncc12
3. COc1cccc2c1c(NS(=O)(=O)c1ccc(Cl)s1)nn2Cc1cccc(CNC(=O)C(C)(C)O)c1
4. Cc1ccccc1-c1cc(N2CCN(C)CC2)ncc1N(C)C(=O)C(C)(C)c1cc(C(F)(F)F)cc(C(F)(F)F)c1
5. CC#C[C@@H](CC(=O)O)c1ccc(OCc2cccc(-c3ccc(C(F)(F)F)cc3)c2)cc1
6. CC(=O)Nc1nc2c(Oc3cc(-c4ccc(C(F)(F)F)cc4)ncn3)cccc2s1

[A]
1. 78.6%
2. -7.76%
3. 7.32%
4. -1.13%
5. 47.2%
6. -8.12%

List inhibition for every entry below, keeping the order given.
1. OCCOCCN1CCN(C(c2ccccc2)c2ccc(Cl)cc2)CC1 (stereo not drawn)
2. CC(=O)NCCc1c(Cc2ccccc2)[nH]c2ccccc12
3. Cn1cnc2c(F)c(Nc3ccc(Br)cc3Cl)c(C(=O)NOCCO)cc21
4. O=C(Nc1ccc(S(=O)(=O)Nc2nccs2)cc1)C(c1ccccc1)c1ccccc1

[A]
-3.56%
0.533%
-2.18%
80.2%

* * *

- measured target: Single-strand selective monofunctional uracil DNA glycosylase (Homo sapiens) (UniProt Q53HV7)
- Sequence (Q53HV7 whole entry): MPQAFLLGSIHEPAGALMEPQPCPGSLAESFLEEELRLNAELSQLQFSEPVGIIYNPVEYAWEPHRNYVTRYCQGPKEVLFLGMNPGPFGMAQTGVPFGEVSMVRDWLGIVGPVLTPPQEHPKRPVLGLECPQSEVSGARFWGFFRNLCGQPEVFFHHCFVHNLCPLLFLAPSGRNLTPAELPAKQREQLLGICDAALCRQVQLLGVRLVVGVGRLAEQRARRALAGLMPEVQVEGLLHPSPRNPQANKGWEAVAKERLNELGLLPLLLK
- condition parameters: Compound Concentration 10.0 uM, Hit No
- Description: Inhibition of SMUG1 by quantifying inhibition of SMUG1-mediated cleavage and dissociation of quenched duplex DNA oligonucleotides, measured as fluorescence at 594 nm. To generate a functional strand incision and increase turn-over this assay is coupled to APE1.
recorded endpoint: inhibition (%)
Answers are plain numbers, in %.

Check out these entries, answers already filled in.
structure notation	meas value
COc1cc(Nc2ccnc3ccc(Br)cc23)cc(OC)c1OC	26.8
CN([C@@H]1CCc2c(CC(=O)O)c3cc(S(C)(=O)=O)ccc3n2C1)S(=O)(=O)c1ccc(F)cc1	11.2
Cc1ccc2c(c1)c1c(n2CCc2ccc(C)nc2)CCN(C)C1	-3.57

List inhibition for every entry below, keeping the order given.
1. CC(C)(N)C(=O)N[C@H](COCc1ccccc1)C(=O)N1CCC2(CC1)CN(S(C)(=O)=O)c1ccccc12
2. COc1ccc(S(=O)(=O)N2c3ccc(Cl)cc3[C@](O)(c3ccccc3Cl)[C@@H]2C(=O)N2CCC[C@H]2C(N)=O)cc1OC
3. O=C(Nc1cccc(C(F)(F)F)c1)c1cc(Cl)ccc1O
4. O=C(O)c1ccc(-c2coc3ncc(-c4ccccc4)cc23)cc1Cl

[A]
1. -6.91
2. -8.03
3. 0.608
4. 25.7

* * *

- measured target: Single-strand selective monofunctional uracil DNA glycosylase (Homo sapiens) (UniProt Q53HV7);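 note: enzymatic SMUG1 assay coupled with APE1, reading fluorescence at 594 nm released when a quenched double-stranded DNA oligonucleotide substrate is cleaved and separated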
- condition parameters: Compound Concentration 10.0 uM, Hit No
recorded endpoint: inhibition (%)
Answers are plain numbers, in %.

Check out these entries, answers already filled in.
compound	reading unit	inhibition
Clc1cccc(-n2nnnc2NCc2ccccc2Oc2ccccn2)c1Cl	%	6.2
C/N=C(/NC#N)NCCSCc1csc(NC(=N)N)n1	%	-3.81
O=S(=O)(c1ccccc1)N(CC(F)(F)F)c1ccc(C(O)(C(F)(F)F)C(F)(F)F)cc1	%	0.186
N#CC1(c2ccccn2)CCN(Cc2cc(C(=O)N3CCCC3)c(=O)n3ccccc23)CC1	%	16.3
CC(/C=C1\SC(=S)N(CCCC(=O)Nc2ccc(C(=O)O)c(O)c2)C1=O)=C\c1ccccc1	%	-1.92

List inhibition for every entry below, keeping the order given.
1. N#CN1CC[C@@H](C(=O)Nc2nc3c(s2)CN(C(=O)CN=[N+]=[N-])CC3)C1
2. FC(F)(F)c1ccccc1-c1cc(C(F)(F)F)c2[nH]c(C3=NOC4(CCCCC4)C3)nc2c1
3. Cc1nnc2ccc(-c3cccc(C(F)(F)F)c3)nn12

[A]
2.3
-0.41
-2.84

List inhibition for every entry below, keeping the order given.
1. CCO[C@@H](Cc1ccc(OCCc2ccc(OS(C)(=O)=O)cc2)cc1)C(=O)O
2. CCCCOCCOc1nc(-c2ccc(C(=O)O)c(F)c2)sc1C
3. CN1CCN(C(=O)C(C)(C)c2ccc(C(=O)Nc3cn4cc(-c5ccncc5)ccc4n3)cc2)CC1
4. CCS(=O)(=O)c1cc2cc(C[C@](O)(CC(C)(C)c3ccc(F)cc3C(N)=O)C(F)(F)F)[nH]c2cn1
5. CCN(CC)S(=O)(=O)Nc1cccc(-c2ccc3c(NC(=O)C4CC4)n[nH]c3c2)c1
6. CCCCCNC(=O)N1CCC(CN(Cc2ccc(Cl)cc2)Cc2ccc([N+](=O)[O-])s2)C1 (centres undefined)
7. Cc1cccc(F)c1C(=O)Nc1cnc(-c2cc3c(cc2Cl)OC(F)(F)O3)cn1
8. Cc1nc(-c2ccc(C(F)(F)F)cc2)sc1C(=O)NCc1ccc(OC(C)(C)C(=O)O)cc1

[A]
1. 20.9
2. 18.1
3. 18.7
4. 15.9
5. 11.9
6. 13.7
7. 9.65
8. 17.9

* * *

Could you please report measured inhibition for the items listed next?
- measured target: Endonuclease 8-like 2 (Homo sapiens) (UniProt Q969S2);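 note: fluorescence at 594 nm reports NEIL2 cutting and release of a quenched double-stranded DNA oligo substrate, reduced signal read as inhibition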
- Sequence (whole entry): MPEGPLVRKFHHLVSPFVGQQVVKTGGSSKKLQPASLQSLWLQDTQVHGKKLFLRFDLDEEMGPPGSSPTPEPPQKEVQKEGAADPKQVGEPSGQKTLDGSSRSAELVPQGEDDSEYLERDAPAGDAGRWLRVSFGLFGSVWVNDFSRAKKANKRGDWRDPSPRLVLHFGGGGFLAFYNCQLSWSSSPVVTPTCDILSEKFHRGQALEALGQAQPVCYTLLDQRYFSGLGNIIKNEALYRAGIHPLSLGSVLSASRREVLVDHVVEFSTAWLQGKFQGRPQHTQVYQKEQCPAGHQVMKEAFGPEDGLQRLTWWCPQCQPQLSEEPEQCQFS
- condition parameters: Compound Concentration 10.0 uM, Hit No
- Description: Inhibition of NEIL2 by quantifying inhibition of NEIL2-mediated cleavage and dissociation of quenched duplex DNA oligonucleotides, measured as fluorescence at 594 nm.
Answers are plain numbers, in %.

Check out these entries, answers already filled in.
compound	measured target	reading unit	inhibition
Oc1ccc2c3c1O[C@H]1c4[nH]c5c(c4C[C@@]4(O)[C@@H](C2)N(CC2CC2)CC[C@]314)C[C@@]1(O)[C@H]2Cc3ccc(O)c4c3[C@@]1(CCN2CC1CC1)[C@H]5O4	Endonuclease 8-like 2 (Homo sapiens) (UniProt Q969S2)	%	-3.73
C[N+]1(C)[C@@H]2C[C@@H](OC(=O)C(O)(c3cccs3)c3cccs3)C[C@H]1[C@@H]1O[C@@H]12	Endonuclease 8-like 2 (Homo sapiens) (UniProt Q969S2)	%	2.01
C[C@H](CO)Nc1nc(SCc2cccc(Cl)c2F)nc2[nH]c(=O)sc12	Endonuclease 8-like 2 (Homo sapiens) (UniProt Q969S2)	%	-2.98
CN1C[C@@H](NS(=O)(=O)N(C)C)C[C@@H]2c3cccc4c3c(cn4C)C[C@H]21	Endonuclease 8-like 2 (Homo sapiens) (UniProt Q969S2)	%	-0.605

List inhibition for every entry below, keeping the order given.
1. CCCCC1=NC2(CCCC2)C(=O)N1Cc1ccc(-c2ccccc2-c2nnn[nH]2)cc1
2. COC(=O)C1=C(C)NC(C)=C(C(=O)OC(C)C)C1c1cccc2nonc12 (stereo not drawn)
3. CC(C)c1onc(-c2c(Cl)cccc2Cl)c1COc1ccc(/C=C/c2cccc(C(=O)O)c2)c(Cl)c1
4. CC(C)C[C@@H](C(=O)N[C@@H](Cc1ccc(OCc2ccccc2)cc1)C(=O)NC(C)(C)C)N(C)Cc1ccc(C(C)(C)C)cc1

[A]
[5.76, -0.86, -6.36, -9.01]

List inhibition for every entry below, keeping the order given.
1. COc1cccc(OC)c1-c1cc(C(=O)NC2(C(=O)O)C3CC4CC(C3)CC2C4)nn1-c1ccc(C(=O)N(C)CCCN(C)C)cc1C(C)C (stereo not drawn)
2. N[C@@H](CCP(=O)(O)O)C(=O)O
3. Cc1onc(-c2ccc(F)cc2)c1COc1ccc(C(=O)N2CCS(=O)(=O)CC2)cn1
4. CC1(C)CN2C(CS/C(=N\C3CCCCC3)NC3CCCCC3)=CSC2=N1
5. CC(C)(O)CCn1c(=O)n(C(=O)N[C@H](C(N)=O)C(C)(C)C)c2ccccc21

[A]
7.25
-3.15
-7.99
-0.86
1.76

List inhibition for every entry below, keeping the order given.
1. N#CN1CC[C@H](C(=O)Nc2nc3c(s2)CN(C(=O)CN=[N+]=[N-])CC3)C1
2. COC(=O)c1sccc1S(=O)(=O)Nc1ccc(Nc2ccccc2)cc1OC

[A]
5.89
1.55

List inhibition for every entry below, keeping the order given.
1. O=C(Nc1ccc(S(=O)(=O)Nc2nccs2)cc1)C(c1ccccc1)c1ccccc1
2. CCOc1c2c(c(OCC)c3ncccc13)CN(c1ccc(CS(=O)(=O)NC(=O)Cc3ccccc3OC)cc1C)C2=O
3. CC(C)Oc1ccccc1C(=O)Nc1ccccc1C(=O)Nc1cccc(S(=O)(=O)C(F)(F)F)c1

[A]
1: -1.11; 2: 2.01; 3: -0.483
